FYI, the data here is from the supplement of paper PMC6089552.

Test system: A673/TR/shEF
Experimental protocol: cell viability (LOESS-normalised, relative to median of negative controls) (log2 ratio); higher = more viable cells (less compound effect), active = hit call of the paper (over 3 MAD below the median)
Details: 2.5 µM; library screen: screen1; EWS-FLI1 expression: high (no doxycycline); treatment time: 72 h
In all, about 3,200 compounds went through this assay and about 300 (9.4%) showed activity. The entries come from a sample that favours actives as a whole.
Bench note: report the call from active, inactive

Ask: Entry CCOC(=O)c1c[nH]c2ccc(OC)cc2c1=O : call = ?
Reply: inactive

Next:
Ask: Entry C[C@H](CCC(=O)O)[C@H]1CC[C@H]2[C@@H]3C(O)CC4=CC(=O)CC[C@]4(C)[C@H]3CC[C@]12C (stereo not given in full) : call = ?
Reply: inactive

Ask: Try CC(C)c1c(O)ccc2c1CCC1[C@@](C)(C(=O)O)CCC[C@]21C (stereo not given in full) next.
Reply: inactive

Ask: Try CCOC(=O)c1oc2c(OC)c(O)cc(O)c2c(=O)c1-c1cc(OC)c(OC)c(OC)c1 next.
Reply: inactive

Ask: Try O=C(O)c1cc2c(Cl)cc(Cl)cc2[nH]1 next.
Reply: inactive

Ask: Try C=C(C)C1COc2cc3oc(=O)ccc3cc2O1 (stereo not given) next.
Reply: inactive

Ask: Try Cc1nnc(SCC(=O)N2c3ccccc3-c3c(ssc3=S)C2(C)C)s1 next.
Reply: inactive

Ask: Try COc1ccc(CN2CCN(Cc3ccc(OC)c(OC)c3OC)CC2)cc1OC next.
Reply: inactive

Ask: Try O=[N+]([O-])c1ccc(Oc2ccc(Br)cc2)c(C(O)[P+](=O)O)c1 (stereo not given) next.
Reply: active

Ask: Try COc1ccc(OC)c(CN2CCN(Cc3ccc(F)cc3)CC2)c1 next.
Reply: inactive

Ask: Try CC(=O)O[C@H]1C[C@@H](OC(C)=O)C(C)(C)C2C[C@@H](OC(C)=O)[C@@]3(C)C4=CC(=O)OC(=O)[C@]4(C)CCC3[C@]21C (stereo not given in full) next.
Reply: inactive

Ask: Try CC(C)N1C(=O)C(=C2C(=O)N(C)c3ccccc32)SC1=S next.
Reply: inactive

Ask: Try COC(=O)c1c(Cl)c(Cl)c(C(=O)OC)c(Cl)c1Cl next.
Reply: inactive

Ask: Try O=C(O)c1ccc(O)c2c1C(=O)c1cc(O)cc(O)c1C2=O next.
Reply: inactive

Ask: Try COc1c2c(cc3occ(-c4ccc5c(c4)OCO5)c(=O)c13)OC(C)(C)C=C2 next.
Reply: inactive

Ask: Try O=c1c(-c2ccc3c(c2)OCO3)coc2cc(O)ccc12 next.
Reply: inactive

----------
Test system: A673/TR/shEF
Experimental protocol: cell viability (LOESS-normalised, relative to median of negative controls) (log2 ratio); higher = more viable cells (less compound effect), active = hit call of the paper (over 3 MAD below the median)
Details: 2.5 µM; library screen: screen1; EWS-FLI1 expression: low (doxycycline-induced shRNA knockdown); treatment time: 72 h
In all, about 3,200 compounds went through this assay and about 300 (9.4%) showed activity. Shown is part of a subset that was picked to be rich in actives.
Readout type: cell viability (log2)
Provide a numeric answer; units are not to be included.

See these solved cases before continuing.
Ask: Reported cell viability (log2), molecule CC12CCC3c4ccc(OC(=O)c5ccccc5)cc4CCC3C1CCC2=O (stereo not drawn) : ____
Reply: 0.000425

Ask: Try COc1ccc(-c2coc3cc(OC)cc(O)c3c2=O)cc1 next.
Reply: 0.184

Let us examine a further case.
Ask: Reported cell viability (log2), molecule CC(=O)O[C@@H]1CC2C(C)(C)CCC(=O)[C@]2(C)C2CC[C@@]3(C)[C@H](c4ccoc4)OC(=O)C4OC43[C@@]21C (stereo partly drawn) : ____
Reply: 0.0866

----------
System: A673/TR/shEF
Experimental protocol: cell viability (LOESS-normalised, relative to median of negative controls) (log2 ratio); higher = more viable cells (less compound effect), active = hit call of the paper (over 3 MAD below the median)
Details: 0.25 µM; library screen: screen1; EWS-FLI1 expression: high (no doxycycline); treatment time: 72 h
Screen size: about 3,200 compounds; about 300 (9.4%) showed activity. This excerpt belongs to a sample that is enriched for actives.
Strictly below 0.09 in cell viability (log2): T. Otherwise: F.

Some entries whose results are on file:
Ask: Please let me know if COc1cccc(-n2c(C)c(C(C)=O)c(C(C)=O)c2C)c1 shows cell viability (log2) below 0.09.
Reply: T

Ask: Try O=S(=O)(c1cccc2cnccc12)N1CCCNCC1 next.
Reply: F

Ask: Try COc1ccc(C(=O)C=Cc2ccccc2)cc1 next.
Reply: T

Ask: Try COc1cc(OC)c(C2NC(=S)NC(C)=C2C(=O)Nc2cccc(Cl)c2)cc1OC (configuration not stated) next.
Reply: T

Ask: Try COc1cc(NC(C)CCCN)c2ncccc2c1 (configuration not stated) next.
Reply: T

Ask: Try C=CCc1ccc(OC(=O)c2ccccc2)c(OC)c1 next.
Reply: F

Next:
Ask: Please let me know if CCN1C(=O)/C(=C\c2cn(CCC#N)nc2-c2ccc(F)cc2)SC1=S shows cell viability (log2) below 0.09.
Reply: T

Ask: Try COC1=CC(=O)OC(CCc2ccc(OC)c(OC)c2)C1 (configuration not stated) next.
Reply: F

Ask: Try CC(C)C[C@H](NC(=O)OCC1c2ccccc2-c2ccccc21)C(=O)O next.
Reply: T

Ask: Try CC(=O)OC(CC(=O)[O-])C[N+](C)(C)C (configuration not stated) next.
Reply: T

Ask: Try COc1cc(-c2oc3c(OC)c(O)cc(O)c3c(=O)c2O)ccc1O next.
Reply: T

----------
Test system: A673/TR/shEF
Experimental protocol: cell viability (LOESS-normalised, relative to median of negative controls) (log2 ratio); higher = more viable cells (less compound effect), active = hit call of the paper (over 3 MAD below the median)
Details: 0.25 µM; library screen: screen1; EWS-FLI1 expression: low (doxycycline-induced shRNA knockdown); treatment time: 72 h
Out of some 3,200 compounds screened, about 300 (9.4%) showed activity. The sample as a whole holds a higher share of actives than the screen did.
Readout type: cell viability (log2)
Provide a numeric answer; units are not to be included.

See these solved cases before continuing.
Ask: Reported cell viability (log2), compound COC(=O)C(O)[C@H]1C(C)(C)[C@@H](OC(C)=O)[C@@H]2CC3=C4CC(=O)O[C@@H](c5ccoc5)[C@]4(C)CCC3[C@@]1(C)C2=O (some centres not stated) : ____
Reply: 0.119

Ask: Try CC1C(=O)CC2CC1C2(C)C (configuration not stated) next.
Reply: 0.0655

Ask: Try Cc1cc(=O)oc2cc(O)ccc12 next.
Reply: 0.0733

Ask: Try CC1Cc2ccccc2N1C(=S)Nc1ccc2nccnc2c1 (configuration not stated) next.
Reply: 0.113

Ask: Try COc1ccccc1/C=C1\SC(=S)N(C2CCS(=O)(=O)C2)C1=O (configuration not stated) next.
Reply: 0.0907

Let us examine a further case.
Ask: Reported cell viability (log2), compound NCC1OC(OC2C(N)CC(N)C(OC3OC(CO)C(O)C(N)C3O)C2O)C(N)C(O)C1O (configuration not stated) : ____
Reply: 0.0336

----------
System: A673/TR/shEF
Experimental protocol: cell viability (LOESS-normalised, relative to median of negative controls) (log2 ratio); higher = more viable cells (less compound effect), active = hit call of the paper (over 3 MAD below the median)
Details: 0.25 µM; library screen: screen2; EWS-FLI1 expression: high (no doxycycline); treatment time: 72 h
About 300 (9.4%) of roughly 3,200 compounds showed activity. Only a selection was taken, and actives are over-represented in it overall.
Bench note: report the call from Yes = active, No = inactive

Some entries whose results are on file:
Ask: Entry O=c1c(O)c(-c2cc(O)c(O)c(O)c2)oc2cc(O)cc(O)c12 : call = ?
Reply: No

Ask: Try NCC(O)c1ccc(O)c(O)c1 (centres undefined) next.
Reply: Yes

Ask: Try Cc1cnc(C(=O)NCCc2ccc(S(=O)(=O)NC(=O)NC3CCCCC3)cc2)cn1 next.
Reply: No

Ask: Try CC(C)(C)OC(=O)C(C)(N)c1ccc(Cl)cc1 (centres undefined) next.
Reply: No

Ask: Try CNC[C@H](O)c1ccc(O)c(O)c1 next.
Reply: No

Next:
Ask: Entry CC(=O)[C@H]1CCC2C3CC=C4C[C@@H](OS(=O)(=O)O)CC[C@]4(C)C3CC[C@@]21C (some centres undefined) : call = ?
Reply: No

Ask: Try COc1ccc2cc3[n+](cc2c1OC)CCc1cc2c(cc1-3)OCO2 next.
Reply: No

Ask: Try CC(=O)[C@]1(O)Cc2c(O)c3c(c(O)c2[C@@H](O[C@H]2C[C@H](N)[C@H](O)[C@H](C)O2)C1)C(=O)c1ccccc1C3=O next.
Reply: Yes

Ask: Try N.N.N.N.N.O.[Ru+2] next.
Reply: No

Ask: Try OC[C@H]1O[C@@H](n2cnc3c(NCCc4ccccc4)ncnc32)C(O)[C@H]1O (some centres undefined) next.
Reply: No

Ask: Try NC(=S)c1ccc[n+]([C@@H]2O[C@H](COP(=O)(O)OP(=O)(O)OC[C@H]3O[C@@H](n4cnc5c(N)ncnc54)[C@H](OP(=O)(O)O)[C@@H]3O)[C@@H](O)[C@H]2[O-])c1 next.
Reply: No

Ask: Try C[C@H](NCCc1ccc(O)cc1)[C@H](O)c1ccc(O)cc1 next.
Reply: No

Ask: Try CCCCCCCC/C=C/CCCCCCCC(=O)OC(CO)COC(=O)CCCCCCCCCCCCCCC (centres undefined) next.
Reply: No
